Attribution: patent US20080249081A1

- system-tested: human MrgX2 receptor (Homo sapiens, UniProt Q96LB1)
- Construct: expressed in transfected cells; host or cells: NIH3T3
- Sequence (Q96LB1 whole entry): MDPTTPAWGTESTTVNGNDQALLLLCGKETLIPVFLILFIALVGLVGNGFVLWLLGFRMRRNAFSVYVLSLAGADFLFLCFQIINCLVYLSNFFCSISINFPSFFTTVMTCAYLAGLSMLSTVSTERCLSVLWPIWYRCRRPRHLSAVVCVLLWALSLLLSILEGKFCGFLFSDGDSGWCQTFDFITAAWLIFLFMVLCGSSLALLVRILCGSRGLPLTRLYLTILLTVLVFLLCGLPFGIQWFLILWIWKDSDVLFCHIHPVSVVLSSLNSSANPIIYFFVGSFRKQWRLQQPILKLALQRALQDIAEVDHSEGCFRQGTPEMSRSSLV
- test-protocol: Receptor Selection and Amplification Technology (R-SAT) functional assay, transfected NIH3T3 cells
- Type: cell-based
- condition-notes: percent maximal activation relative to STIA
readout: Human-MrgX2 Eff(%)
Write the value in % as a bare number.

Solved cases below.
> print(dat)
                                   compound                             system.tested  endpoint.value
1  CCCCNC(=O)c1ccc2c(c1)nc(-c1cccc(Oc3ccccc3)c1)n2C(CCCNC(=N)N)C(N)=O (stereo not shown)  human MrgX2 receptor (Homo sapiens, UniProt Q96LB1)              11
2  COc1ccc(NC(=O)c2ccc3c(c2)nc(-c2cccc(Oc4ccccc4)c2)n3C(CCCNC(=N)N)C(N)=O)cc1 (stereo not shown)  human MrgX2 receptor (Homo sapiens, UniProt Q96LB1)               4
3  N=C(N)NCCCC(C(N)=O)n1c(-c2cccc(Oc3ccccc3)c2)nc2cc(C(=O)Nc3nccs3)ccc21 (stereo not shown)  human MrgX2 receptor (Homo sapiens, UniProt Q96LB1)               6
4  CN(CCc1ccccn1)C(=O)c1ccc2c(c1)nc(-c1cccc(Oc3ccccc3)c1)n2[C@@H](CCCNC(=N)N)C(N)=O  human MrgX2 receptor (Homo sapiens, UniProt Q96LB1)              46
5  N=C(N)NCCC[C@@H](C(N)=O)n1c(-c2cccc(Oc3ccccc3)c2)nc2cc(C(=O)N3CCN(c4ccc(F)cc4)CC3)ccc21  human MrgX2 receptor (Homo sapiens, UniProt Q96LB1)              −1

Dear colleague, I am looking for the recorded Human-MrgX2 Eff(%) of the following compound: N=C(N)NCCC[C@@H](C(N)=O)n1c(-c2cccc(Oc3ccccc3)c2)nc2cc(C(=O)NCCc3ccccn3)ccc21
4

Dear colleague, I am looking for the recorded Human-MrgX2 Eff(%) of the following compound: Cc1cccc(N2CCN(C(=O)c3ccc4c(c3)nc(-c3cccc(Oc5ccccc5)c3)n4[C@@H](CCCNC(=N)N)C(N)=O)CC2C)c1 (stereo partly shown)
17

* * *

Attribute: Monkey-MrgX2 Eff(%)
- system-tested: simian MrgX2 receptor (Macaca mulatta, UniProt Q4QXU5)
- Construct: expressed in transfected cells; host or cells: NIH3T3
- Sequence (Q4QXU5 whole entry): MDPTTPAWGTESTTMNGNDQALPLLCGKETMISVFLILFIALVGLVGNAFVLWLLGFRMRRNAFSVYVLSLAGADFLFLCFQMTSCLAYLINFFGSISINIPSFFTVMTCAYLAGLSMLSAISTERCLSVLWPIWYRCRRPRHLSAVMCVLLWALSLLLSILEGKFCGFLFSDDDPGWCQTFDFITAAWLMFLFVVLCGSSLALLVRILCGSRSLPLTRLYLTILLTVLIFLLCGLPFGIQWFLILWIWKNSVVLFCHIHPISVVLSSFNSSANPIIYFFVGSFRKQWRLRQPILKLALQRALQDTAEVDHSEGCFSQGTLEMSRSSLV
- test-protocol: Receptor Selection and Amplification Technology (R-SAT) functional assay, transfected NIH3T3 cells
- Type: cell-based, rhesus monkey
- condition-notes: percent maximal activation relative to STIA
Write the value in % as a bare number.

> print(dat)
                                   molecule                             system.tested              readout  endpoint.value
1  N=C(N)NCCC[C@@H](C(N)=O)n1c(-c2cccc(Oc3ccccc3)c2)nc2cc(C(=O)N3CCN(c4ccc(F)cc4)CC3)ccc21  simian MrgX2 receptor (Macaca mulatta, UniProt Q4QXU5)  Monkey-MrgX2 Eff(%)              25
2  N=C(N)NCCC[C@@H](C(N)=O)n1c(-c2cccc(Oc3ccccc3)c2)nc2cc(C(=O)NCCc3ccccn3)ccc21  simian MrgX2 receptor (Macaca mulatta, UniProt Q4QXU5)  Monkey-MrgX2 Eff(%)               4
3  CN(CCc1ccccn1)C(=O)c1ccc2c(c1)nc(-c1cccc(Oc3ccccc3)c1)n2[C@@H](CCCNC(=N)N)C(N)=O  simian MrgX2 receptor (Macaca mulatta, UniProt Q4QXU5)  Monkey-MrgX2 Eff(%)              18

Dear colleague, I am looking for the recorded Monkey-MrgX2 Eff(%) of the following molecule: Cc1cccc(N2CCN(C(=O)c3ccc4c(c3)nc(-c3cccc(Oc5ccccc5)c3)n4[C@@H](CCCNC(=N)N)C(N)=O)CC2C)c1 (stereo partly shown)
22
